We begin with a simple list: items and their reported IC50.
- system.under.test: Interleukin-2 (Homo sapiens, UniProt P60568)
- Sequence (P60568 whole entry): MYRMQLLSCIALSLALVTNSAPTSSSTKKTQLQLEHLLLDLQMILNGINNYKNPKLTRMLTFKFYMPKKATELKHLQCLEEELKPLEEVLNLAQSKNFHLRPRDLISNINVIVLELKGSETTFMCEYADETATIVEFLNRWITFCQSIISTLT
- procedure.summary: Concentration required to inhibit mouse interleukin-2 alpha receptor was determined by SPA assay

The examples below pair each entry with its known result.
1. CC(C)C[C@@H](N=C(N)N)C(=O)NCC(=O)N1CCC(c2cc(-c3cccc(Cl)c3Cl)nn2C)CC1 | 2 µM
2. NC(N)=N[C@@H](C(=O)NCC(=O)N1CCC(c2cc(-c3ccccc3Cl)n[nH]2)CC1)C1CCCCC1 | 40 µM
3. N=C(N)N[C@@H](C(=O)NCC(=O)N1CCC(c2cccc(-c3ccc(Cl)cc3Cl)c2)CC1)C1CCCCC1 | 150 µM

Can you look up the measured IC50 of `N=C(N)N[C@@H](C(=O)NCC(=O)N1CCC(c2cc(-c3ccc(O)cc3Cl)[nH]n2)CC1)C1CCCCC1` for me?
30 µM

I am curious: what IC50 value has been reported for `Cc1ccccc1-c1cc(C2CCN(C(=O)CNC(=O)[C@H](N=C(N)N)C3CCCCC3)CC2)[nH]n1` ?
50 µM

// IC50 lookup, key: `COc1ccc(-c2cc(C3CCN(C(=O)CNC(=O)[C@H](N=C(N)N)C4CCCCC4)CC3)[nH]n2)c(Cl)c1`
50 µM

Recorded IC50 of `N=C(N)N[C@@H](C(=O)NCC(=O)N1CCC(c2cc(-c3ccc(Cl)cc3Cl)[nH]n2)CC1)C1CCCCC1` , please.
10 µM

I have this compound here, `CC(C)C[C@@H](N=C(N)N)C(=O)NCC(=O)N1CCC(c2cc(-c3ccc(O)c(Cl)c3Cl)nn2C)CC1` , and I need its recorded IC50.
8.1 µM

###

- system.under.test: Interleukin-2 (Homo sapiens, UniProt P60568)
- procedure.summary: Concentration required to inhibit mouse interleukin-2 alpha receptor was determined by SPA assay
Reported IC50 values are given for each entry in this list.
API: value field is a number in µM; no unit string.

Please review the following examples before continuing.
1. Cn1nc(C2CCN(C(=O)CNC(=O)[C@H](N=C(N)N)C3CCCCC3)CC2)cc1-c1cccc(Cl)c1Cl | 50
2. CC1C(c2cccc(Cl)c2Cl)=NN=C1C1CCN(C(=O)CNC(=O)[C@H](N=C(N)N)C2CCCCC2)CC1 (stereo partly drawn) | 400
3. NC(N)=N[C@@H](C(=O)NCC(=O)N1CCC(c2cc(-c3ccc(Cl)c(Cl)c3)n[nH]2)CC1)C1CCCCC1 | 110

Tell me reported IC50 for `Cc1cccc(-c2cc(C3CCN(C(=O)CNC(=O)[C@H](N=C(N)N)C4CCCCC4)CC3)[nH]n2)c1` , tested with Interleukin-2 (Homo sapiens, UniProt P60568).
150

Recorded IC50 for `CC(C)C[C@@H](N=C(N)N)C(=O)NCC(=O)N1CCC(c2cc(-c3ccc(OCc4ccc(C(=O)O)cc4)c(Cl)c3Cl)nn2C)CC1` with Interleukin-2 (Homo sapiens, UniProt P60568), please?
0.2

Query for Interleukin-2 (Homo sapiens, UniProt P60568): what IC50 does the record show for `COc1ccc(-c2cc(C3CCN(C(=O)CNC(=O)[C@@H](CC(C)C)N=C(N)N)CC3)n(C)n2)c(Cl)c1Cl` ?
3.5

Please state recorded IC50 (tested on Interleukin-2 (Homo sapiens, UniProt P60568)) of `CC(C)C[C@@H](N=C(N)N)C(=O)NCC(=O)N1CCC(c2cc(-c3ccc(OCc4ccc(CC(=O)O)cc4)c(Cl)c3Cl)nn2C)CC1`
0.6

Find IC50 (Interleukin-2 (Homo sapiens, UniProt P60568)) for the entry `NC(N)=N[C@@H](C(=O)NCC(=O)N1CCC(c2nc(-c3ccc(Cl)cc3Cl)no2)CC1)C1CCCCC1`
500
